The molecules below have reported pIC50 for bovine cerebral TPK1 (Bos taurus, UniProt A0A3Q1MT31).
Friendly reminder that pIC50 comes from taking -log10 of the concentration in mol/L.

Would you please look over these solved cases?
>>> observed_result("C[C@@H]1COCCN1c1nc(-c2ccncc2F)cc(=O)n1C")
8.15
>>> observed_result("Cn1c(N2C3CCCC2CC3)nc(-c2ccncc2F)cc1=O")
8.01
>>> observed_result("Cn1c(N2CCO[C@H]3c4ccccc4CC[C@@H]32)nc(-c2ccncc2F)cc1=O")
8.77
>>> observed_result("COc1ccccc1N1C[C@@H]2CN(c3nc(-c4ccncc4F)cc(=O)n3C)C[C@@H]2C1")
7.85

Req: Please report the measured pIC50 for COc1cccc2c1CC[C@@H]1[C@H]2OCCN1c1nc(-c2ccncc2)cc(=O)n1C
Resp: 8.82

Req: Please report the measured pIC50 for Cn1c(N2CCCC2Cc2ccccc2)nc(-c2ccncc2F)cc1=O (stereo not drawn)
Resp: 8.25

Req: Please report the measured pIC50 for COc1ccccc1NC1CC2CCC(C1)N2c1nc(-c2ccncc2F)cc(=O)n1C (stereo not drawn)
Resp: 8.55

Req: Please report the measured pIC50 for C[C@@H]1CN(C(=O)c2ccc(N(C)C)cc2)CCN1c1nc(-c2ccncn2)cc(=O)n1C
Resp: 8.62

Req: Please report the measured pIC50 for C[C@@H]1CN(c2ccccc2)CCN1c1nc(-c2ccncn2)cc(=O)n1C
Resp: 8.85

Value source: patent US8569294B2
